Exercise: state measured cell viability for each of the compounds provided.
system: MARIMO; test: cell viability relative to vehicle control; higher = less cytotoxic; settings: 10 µM; SRSF2 genotype: SRSF2 P95H/wt;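 also: after 48 h exposure read by CellTiter-Glo luminescence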

[in] Quick one: cell viability for COC(=O)N(C)c1c(N)nc(-c2nn(Cc3ccccc3F)c3ncccc23)nc1N [Riociguat (BAY 63-2521)] ?
[out] 85%

[in] cell viability for NC1=N[C@@]2(c3cc(NC(=O)c4ccc(F)cn4)ccc3F)COC[C@H]2CS1 ?
[out] 89.6%

[in] # query: cell viability of entry CN(C)C/C=C/C(=O)Nc1cc2c(Nc3ccc(F)c(Cl)c3)ncnc2cc1O[C@H]1CCOC1 [Afatinib (BIBW2992)]
[out] 1.96%

[in] Returns the measured cell viability for the input compound. Input: N#C/C(=C1/SC[C@@H](c2ccc(Cl)cc2Cl)S1)n1ccnc1 [Luliconazole]
[out] 78.9%

[in] # query: cell viability of entry O=c1cc(N2CCOCC2)oc2c1ccc1ccccc12
[out] 93.3%

* * *

Give measured cell viability for each item. Keep answers brief.
tested on: MARIMO; experiment: cell viability relative to vehicle control; higher = less cytotoxic; settings: 10 µM; SRSF2 genotype: SRSF2 wt/wt;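 also: after 48 h exposure read by CellTiter-Glo luminescence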
Structures can show the parent of a compound that is named as a salt.
Unit % implied. Number only.

[in] Given the entry [Na+].[Na+].[Na+].[Na+].[Na+].[Na+].[O]=[W](=[O])([O-])[O-].[O]=[W](=[O])([O-])[O-].[O]=[W](=[O])([O-])[O-].[O]=[W](=[O])=[O].[O]=[W](=[O])=[O].[O]=[W](=[O])=[O].[O]=[W](=[O])=[O].[O]=[W](=[O])=[O].[O]=[W](=[O])=[O].[O]=[W](=[O])=[O].[O]=[W](=[O])=[O].[O]=[W](=[O])=[O] [SodiuM Metatungstate] , report its measured cell viability.
[out] 106

[in] Consider the compound shown here: COc1cc2nc(N3CCN(C(=O)c4ccco4)CC3)nc(N)c2cc1OC [Prazosin HCl] What is its recorded cell viability?
[out] 103

[in] Requested field: cell viability. Item: CSCC1CN(/N=C/c2ccc([N+](=O)[O-])o2)C(=O)O1 (stereo not drawn)
[out] 82.2

[in] Suppose we examine the compound O=C1NC(=NCc2cccs2)S/C1=C\c1ccc2ncccc2c1 ; what cell viability value has been reported?
[out] 77.9

[in] If you can, please state the reported cell viability value of CC(=O)O[C@@H]1C[C@@]23C[C@@]24CC[C@H](O[C@@H]2OC[C@@H](O)[C@H](O)[C@H]2O)C(C)(C)[C@@H]4CC=C3[C@]2(C)C[C@@H]3OC4(C[C@@H](C)[C@@H]3[C@@]12C)OC(O)C1(C)OC41 (stereo partly drawn) [Cimicifugoside] .
[out] 111

[in] Can you look up the measured cell viability of COc1ccc([C@@H]2Sc3ccccc3N(CCN(C)C)C(=O)[C@@H]2OC(C)=O)cc1 [Diltiazem HCl] for me?
[out] 98.1

[in] Please look up its cell viability: CC(C)(CO)c1cc2cc(NC(=O)C3(c4ccc5c(c4)OC(F)(F)O5)CC3)c(F)cc2n1C[C@@H](O)CO
[out] 109

[in] // cell viability lookup, key: Nc1nc(N)c2nc(-c3cccc(O)c3)cnc2n1
[out] 59.2

[in] Any idea what cell viability was measured for C=C1CC[C@H](O)C/C1=C/C=C1\CCC[C@]2(C)[C@@H]([C@H](C)/C=C/[C@H](C)C(C)C)CC[C@@H]12 [Vitamin D2 (Ergocalciferol)] ?
[out] 104

[in] What does the record list as cell viability for COc1ccccc1OCCNCC(O)COc1cccc2[nH]c3ccccc3c12 (stereo not drawn) ?
[out] 56.8

[in] // cell viability lookup, key: S=c1nc[nH]c2nc[nH]c12 [6-Mercaptopurine (6-MP) Monohydrate]
[out] 96.8

[in] Could you tell me which cell viability is on file for CCC(=O)NC[C@@H]1C[C@H]1c1cccc2c1CCO2 ?
[out] 101

[in] What value of cell viability has been recorded for this entry: CC(C)c1onc(-c2c(Cl)cccc2Cl)c1COc1ccc(/C=C/c2cccc(C(=O)O)c2)c(Cl)c1
[out] 98.6

[in] Using the record for CC[C@@H](CO)NCCN[C@@H](CC)CO [Ethambutol HCl] , report its cell viability.
[out] 112

[in] Could you tell me which cell viability is on file for C=C1CCOC1=O ?
[out] 105

[in] Record request: cell viability value, item Cc1nc(N(C)C(=O)Cc2ccc(-c3ccccn3)cc2)sc1S(N)(=O)=O
[out] 112

[in] So what's the measured cell viability for this one? COc1cc2nc(N3CCN(C(=O)C4CCCO4)CC3)nc(N)c2cc1OC (stereo not drawn) [Terazosin HCl]
[out] 102

[in] Item CS(=O)(=O)Nc1ccc([N+](=O)[O-])cc1Oc1ccccc1 [Nimesulide] has what recorded cell viability?
[out] 108

[in] Need cell viability, item CC(C)OC(=O)CCC/C=C\C[C@@H]1[C@@H](CC[C@@H](O)CCc2ccccc2)[C@H](O)C[C@@H]1O
[out] 92.5

[in] Quick one: cell viability of CCOc1ccc(NC(C)=O)cc1 ?
[out] 92.5

[in] Any idea what its cell viability is? The compound is OCCn1cc(-c2cnc3nnn(Cc4ccc5ncccc5c4)c3n2)cn1
[out] 102

[in] Find the recorded cell viability belonging to CN[C@@H](C)C(=O)N[C@H]1CN(C(=O)CC(C)C)CC[C@H]2CC[C@@H](C(=O)NC(c3ccccc3)c3ccccc3)N2C1=O and report it.
[out] 46.6

[in] Would you mind telling me what cell viability value was observed for COc1cc2c[n+](C)c3c4cc5c(cc4ccc3c2cc1OC)OCO5 [Nitidine Chloride] ?
[out] 34.6

[in] I am curious: what cell viability value has been reported for CC(C)c1ccc(C=O)cc1 ?
[out] 99.9

[in] For the compound shown here, CN1CCc2c(c3ccccc3n2Cc2ccc(C(=O)NO)cc2)C1 [Tubastatin A hydrochloride] , give the reported cell viability.
[out] 66.5

[in] Find the recorded cell viability belonging to Cn1cc(C[C@@H](N)C(=O)O)c2ccccc21 and report it.
[out] 103

[in] Can you look up the measured cell viability of COc1cccc2cc(-c3nc([C@H]4CC[C@H](C(=O)O)CC4)n4ncnc(N)c34)[nH]c12 for me?
[out] 47.1

[in] What does the record list as cell viability for C=CC(=O)Nc1cccc(Nc2nc(Nc3ccc(OCCOC)cc3)ncc2F)c1 ?
[out] 60.4

[in] Given the entry O=C1CC[C@@H](C(=O)N2CSC[C@H]2C(=O)O)N1 , report its measured cell viability.
[out] 99.1

[in] May I ask what cell viability has been recorded for CC(=O)CCc1ccccc1 ?
[out] 92.5

[in] Could you share which cell viability value was measured for CCCCCC1=C(C)CCC1=O [Dihydrojasmone] ?
[out] 106

[in] Which value of cell viability has been reported for C=CC(=O)Nc1cccc(Oc2nc(Nc3ccc(N4CCN(C)CC4)cc3)nc3ccsc23)c1 in the records?
[out] 43.4

[in] Would you kindly share the measured cell viability for COc1cc2c(c(O)c1OC)-c1c(cc(OC)c(OC)c1OC)C[C@@H](C)[C@@H](C)C2 ?
[out] 107
